- TARGET_OR_TEST_SYSTEM: FGFR3 (UniProt P22607)
- Sequence (P22607 whole entry, looked up): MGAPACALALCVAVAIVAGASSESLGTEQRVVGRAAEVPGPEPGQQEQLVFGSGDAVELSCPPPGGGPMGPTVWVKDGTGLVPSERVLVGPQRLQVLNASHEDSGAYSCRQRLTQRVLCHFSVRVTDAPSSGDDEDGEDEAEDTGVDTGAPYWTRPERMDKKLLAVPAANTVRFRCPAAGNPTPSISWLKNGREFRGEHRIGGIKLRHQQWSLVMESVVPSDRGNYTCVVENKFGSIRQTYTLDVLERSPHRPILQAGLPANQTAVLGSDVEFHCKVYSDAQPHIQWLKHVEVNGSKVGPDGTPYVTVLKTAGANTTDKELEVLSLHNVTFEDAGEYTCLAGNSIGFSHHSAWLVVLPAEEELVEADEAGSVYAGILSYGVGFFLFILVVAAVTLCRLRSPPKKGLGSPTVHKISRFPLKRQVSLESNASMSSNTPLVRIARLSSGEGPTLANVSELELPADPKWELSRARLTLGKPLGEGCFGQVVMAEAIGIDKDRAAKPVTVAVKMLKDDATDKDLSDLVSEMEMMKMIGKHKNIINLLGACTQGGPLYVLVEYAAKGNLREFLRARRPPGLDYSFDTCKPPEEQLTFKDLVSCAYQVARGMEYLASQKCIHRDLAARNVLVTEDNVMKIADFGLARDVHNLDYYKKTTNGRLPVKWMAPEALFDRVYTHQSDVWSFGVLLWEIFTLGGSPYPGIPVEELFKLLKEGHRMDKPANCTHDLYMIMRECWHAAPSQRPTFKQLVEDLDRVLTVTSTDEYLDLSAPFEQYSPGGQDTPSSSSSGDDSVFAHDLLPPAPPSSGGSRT
- METHOD_NOTES: phosphorylation enrichment, bacterial display (enrichment ratio); higher = better substrate or ligand; peptides without Tyr show the background;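 also: 11-residue human phosphosite peptides and single-mutation variants displayed on the E. coli surface, counted by deep sequencing, each peptide's frequency after selection divided by its frequency in the unselected input library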;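 also: frequency after pTyr selection over input frequency; kinase dosed for 20-30% of maximal phosphorylation in three min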
Please use Condition met whenever phosphorylation enrichment is not below 0.7, and Condition not met whenever it is.

Completed entries (count: 10):
YPIDHYLGKEM [G6PD_Y202_R198P] = Condition not met
EEKKKYFDTKI [CASP5_Y103_YF] = Condition not met
TISPYYCQSLF [CRYAA_Y48_R49C] = Condition met
PFRFIYMAVQH [PTPN11_Y515_Q510P_YF] = Condition met
RHFVFYFSFLL [PTEN_Y177_R173H_YF] = Condition not met
SLMNQYVNKEF [RAB7A_Y28_K32E] = Condition not met
KDAGDYKFKAK [LRIT3_Y326_C328Y_YF] = Condition not met
HEGKIYEFNQV [ZNF665_Y162_YF] = Condition met
ACEVLYNIVFM [NCF2_Y125_A128V] = Condition met
ETGNLYIAKVE [CNTN4_Y180] = Condition not met

Query block: Could you verify whether the entry SAVTGYRVNVI [FN1_Y937_D940N] shows phosphorylation enrichment of no less than 0.7?
Result block: Condition not met

Query block: Item CLNAIYQNNLT [GSR_Y158_R153C] with phosphorylation enrichment of 0.7 or above?
Result block: Condition met

Query block: Test whether the sequence INQGPYENHSV [ATP6V1B1_Y462_R465H] records phosphorylation enrichment of 0.7 or higher.
Result block: Condition not met

* * *

- System: c-Src
- METHOD_NOTES: phosphorylation enrichment, bacterial display (enrichment ratio); higher = better substrate or ligand; peptides without Tyr show the background
Categorize each record by its phosphorylation enrichment using zone 1 = under 0.4, zone 2 = from 0.4 up to 0.7, zone 3 = 0.7 and over

PSQRHYVFFFS [PTEN_Y174_R173H_YF] = zone 3

Query block: Any idea which band SVCPDYDLCSI [SQSTM1_Y148_V153I] is in?
Result block: zone 3

Query block: Which bin should I file AIIGIYNLRDD [CDH23_Y2949_I2950N] under?
Result block: zone 3

Query block: Exercise: read the entry FDGGCYEQLFV [MC4R_Y41_S36Y_YF] and state which class it falls under.
Result block: zone 3

Query block: Into which bin does this sequence go? MVTSGYKAKMI [EFR3A_Y447_T451M]
Result block: zone 2

Query block: Just checking, what class would you give ADKSVYLMGLN [MYH7_Y386_A385V] here?
Result block: zone 2

Query block: Assign a bin to DTFDPYLDIAL [USP36_Y268_V271I_YF]
Result block: zone 3

* * *

- TARGET_OR_TEST_SYSTEM: FGFR1 (UniProt P11362)
- Sequence (P11362 whole entry, looked up): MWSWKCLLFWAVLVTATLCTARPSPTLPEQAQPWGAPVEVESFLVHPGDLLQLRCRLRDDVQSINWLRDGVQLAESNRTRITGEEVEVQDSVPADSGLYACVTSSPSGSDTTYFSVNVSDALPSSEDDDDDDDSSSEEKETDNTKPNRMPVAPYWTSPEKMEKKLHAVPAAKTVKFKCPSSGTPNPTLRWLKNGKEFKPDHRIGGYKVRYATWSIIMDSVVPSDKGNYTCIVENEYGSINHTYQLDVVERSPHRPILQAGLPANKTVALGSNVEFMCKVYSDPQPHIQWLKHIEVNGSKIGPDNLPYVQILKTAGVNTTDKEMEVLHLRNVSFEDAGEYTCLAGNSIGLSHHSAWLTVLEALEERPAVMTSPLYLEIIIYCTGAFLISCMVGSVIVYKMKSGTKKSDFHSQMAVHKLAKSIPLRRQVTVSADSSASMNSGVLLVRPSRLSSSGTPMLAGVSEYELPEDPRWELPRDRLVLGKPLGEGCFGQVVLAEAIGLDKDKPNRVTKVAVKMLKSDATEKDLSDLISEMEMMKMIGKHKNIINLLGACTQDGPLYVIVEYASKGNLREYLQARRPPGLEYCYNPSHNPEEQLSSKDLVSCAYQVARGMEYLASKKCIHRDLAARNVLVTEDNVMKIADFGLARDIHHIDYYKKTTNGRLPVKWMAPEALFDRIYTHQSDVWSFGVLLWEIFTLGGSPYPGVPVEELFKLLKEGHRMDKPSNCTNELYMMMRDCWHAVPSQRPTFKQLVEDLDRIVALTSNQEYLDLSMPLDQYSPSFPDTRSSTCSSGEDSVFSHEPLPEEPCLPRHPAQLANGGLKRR
- METHOD_NOTES: phosphorylation enrichment, bacterial display (enrichment ratio); higher = better substrate or ligand; peptides without Tyr show the background
Class (required): determined from phosphorylation enrichment; valid ranges are L (below 0.4), M (0.4 to below 0.7), H (0.7 or more)

FKGKKYKPLDL [RPL35_Y78_YF] = L
ENRKYYKDLKE [PURA_Y156_M157K] = L
IETGKYEILTE = M

Query block: Tag the class for GRIHSYRGHLW [VHL_Y112_R107G]
Result block: L

Query block: // return the class label for AKAEIYEMRPL [COX10_Y97]
Result block: M

Query block: For the record SFPPTYRYERG [INPPL1_Y661] , report the class its phosphorylation enrichment corresponds to.
Result block: M

Query block: For DHYNQYEQQKM [CHD7_Y75] , which phosphorylation enrichment bin applies?
Result block: M

Query block: Sort LDYNEYFRDLN [HPRT1_Y198] into one of the categories.
Result block: H

* * *

- TARGET_OR_TEST_SYSTEM: Fyn (UniProt P06241)
- Sequence (P06241 whole entry, looked up): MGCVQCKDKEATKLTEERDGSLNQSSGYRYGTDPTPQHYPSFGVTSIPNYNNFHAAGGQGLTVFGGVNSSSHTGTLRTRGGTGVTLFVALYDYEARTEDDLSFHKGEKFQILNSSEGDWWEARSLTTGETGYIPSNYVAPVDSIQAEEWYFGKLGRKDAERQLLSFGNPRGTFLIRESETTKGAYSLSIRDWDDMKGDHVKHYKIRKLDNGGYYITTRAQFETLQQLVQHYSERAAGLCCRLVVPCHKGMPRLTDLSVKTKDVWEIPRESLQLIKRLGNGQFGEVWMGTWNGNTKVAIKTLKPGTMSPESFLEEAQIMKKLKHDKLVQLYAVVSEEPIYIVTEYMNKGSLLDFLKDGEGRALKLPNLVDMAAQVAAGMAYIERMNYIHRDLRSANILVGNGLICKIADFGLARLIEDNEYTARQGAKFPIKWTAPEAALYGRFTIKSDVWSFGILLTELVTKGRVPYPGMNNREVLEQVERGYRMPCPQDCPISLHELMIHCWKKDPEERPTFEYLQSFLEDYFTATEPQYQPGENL
- METHOD_NOTES: phosphorylation enrichment, bacterial display (enrichment ratio); higher = better substrate or ligand; peptides without Tyr show the background
Measured phosphorylation enrichment, listed per entry.
// no unit, no text: just the number

Study these solved cases before continuing.
AVAFVYFKSIG [ADGRL4_Y301_YF] = 0.643
ARLEFYENEKK [IRS1_Y47_YF] = 0.439
CGTPDNIAPEI [PRKCG_Y521_Y521N] = 0.593
WRRLIYRCQVG [NR2E3_Y81_R76W] = 0.452
NKVFTYIFIME [SCN4A_Y1074_D1069N] = 0.46
SIKDKYVTAFF [KCNH2_Y611_L615F_YF] = 0.399

Query block: I am curious: what phosphorylation enrichment value has been reported for RLLRGHDQYAY [HLA-B_Y137] ?
Result block: 0.57

* * *

- TARGET_OR_TEST_SYSTEM: Fes (UniProt P07332)
- Sequence (P07332 whole entry, looked up): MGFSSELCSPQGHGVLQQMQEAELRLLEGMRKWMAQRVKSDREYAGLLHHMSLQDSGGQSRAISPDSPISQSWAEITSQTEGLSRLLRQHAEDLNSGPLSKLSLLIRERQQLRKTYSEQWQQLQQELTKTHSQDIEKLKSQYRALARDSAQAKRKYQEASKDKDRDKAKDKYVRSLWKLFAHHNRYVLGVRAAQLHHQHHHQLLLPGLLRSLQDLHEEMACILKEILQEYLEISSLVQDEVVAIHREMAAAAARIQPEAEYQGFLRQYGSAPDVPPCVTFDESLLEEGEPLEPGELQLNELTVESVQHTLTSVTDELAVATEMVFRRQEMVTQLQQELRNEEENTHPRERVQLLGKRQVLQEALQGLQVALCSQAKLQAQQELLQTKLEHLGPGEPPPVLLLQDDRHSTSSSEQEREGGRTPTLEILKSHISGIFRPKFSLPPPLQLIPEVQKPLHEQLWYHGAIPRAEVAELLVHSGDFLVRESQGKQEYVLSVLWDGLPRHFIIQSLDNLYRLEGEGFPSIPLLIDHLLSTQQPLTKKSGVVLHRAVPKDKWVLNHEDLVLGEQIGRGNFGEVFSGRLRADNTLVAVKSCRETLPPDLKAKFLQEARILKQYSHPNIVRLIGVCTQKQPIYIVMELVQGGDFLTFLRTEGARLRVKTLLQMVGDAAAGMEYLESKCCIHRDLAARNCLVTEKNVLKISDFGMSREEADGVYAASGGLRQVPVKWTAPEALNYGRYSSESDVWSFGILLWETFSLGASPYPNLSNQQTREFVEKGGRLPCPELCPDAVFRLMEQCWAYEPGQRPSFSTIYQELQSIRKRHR
- METHOD_NOTES: phosphorylation enrichment, bacterial display (enrichment ratio); higher = better substrate or ligand; peptides without Tyr show the background
PROPERTY_NAME: phosphorylation enrichment
Reply briefly: the number, and no unit.

Worked examples follow.
SQDSAYHSGIQ [FLG_Y3940] = 0.614
MSRDIYSTDFF [NTRK1_Y676_YF] = 1.04
YEPDAYDDLDQ [ELP5_Y302] = 1.19
VIKDKYPKAHF [APTX_Y209_R213H_YF] = 0.493
KLVRLYAVVTR [LYN_Y306] = 1.14

Here is the next item to consider.
Query block: API: value(readout=phosphorylation enrichment, system=Fes (UniProt P07332)) for record PELINYHQHFS [BTK_Y361_N365Y_YF]
Result block: 0.869

* * *

- TARGET_OR_TEST_SYSTEM: Jak2 (UniProt O60674)
- Sequence (O60674 whole entry, looked up): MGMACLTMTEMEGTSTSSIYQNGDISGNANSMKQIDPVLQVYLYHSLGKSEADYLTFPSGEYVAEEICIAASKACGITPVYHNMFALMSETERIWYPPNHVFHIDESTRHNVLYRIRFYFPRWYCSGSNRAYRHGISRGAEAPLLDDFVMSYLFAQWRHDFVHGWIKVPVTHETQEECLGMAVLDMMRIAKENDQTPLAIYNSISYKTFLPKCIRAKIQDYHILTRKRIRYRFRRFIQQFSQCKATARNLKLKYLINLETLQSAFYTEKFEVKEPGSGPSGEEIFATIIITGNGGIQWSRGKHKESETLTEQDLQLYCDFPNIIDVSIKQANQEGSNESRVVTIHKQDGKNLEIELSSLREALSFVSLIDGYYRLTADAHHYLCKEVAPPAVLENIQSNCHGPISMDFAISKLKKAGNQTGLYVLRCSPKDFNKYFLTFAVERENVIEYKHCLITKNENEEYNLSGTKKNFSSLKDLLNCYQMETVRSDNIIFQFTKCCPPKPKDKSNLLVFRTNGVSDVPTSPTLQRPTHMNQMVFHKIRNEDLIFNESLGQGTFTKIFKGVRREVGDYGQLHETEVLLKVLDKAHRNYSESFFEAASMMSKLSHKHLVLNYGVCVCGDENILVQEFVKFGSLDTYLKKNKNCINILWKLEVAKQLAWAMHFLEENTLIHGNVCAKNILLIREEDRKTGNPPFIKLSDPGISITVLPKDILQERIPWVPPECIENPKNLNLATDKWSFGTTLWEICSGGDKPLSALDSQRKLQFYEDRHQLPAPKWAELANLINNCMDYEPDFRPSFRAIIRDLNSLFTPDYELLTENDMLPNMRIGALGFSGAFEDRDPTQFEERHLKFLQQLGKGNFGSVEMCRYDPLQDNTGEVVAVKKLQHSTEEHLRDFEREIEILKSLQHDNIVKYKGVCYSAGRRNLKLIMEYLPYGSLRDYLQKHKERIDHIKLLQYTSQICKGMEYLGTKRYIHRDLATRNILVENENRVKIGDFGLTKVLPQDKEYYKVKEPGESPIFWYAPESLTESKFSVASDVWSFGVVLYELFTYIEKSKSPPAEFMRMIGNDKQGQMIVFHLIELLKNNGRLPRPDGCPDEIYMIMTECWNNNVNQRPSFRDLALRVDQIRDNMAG
- METHOD_NOTES: phosphorylation enrichment, bacterial display (enrichment ratio); higher = better substrate or ligand; peptides without Tyr show the background
PROPERTY_NAME: phosphorylation enrichment
Could you respond with only the numeric value?

Solved cases below.
ARGTRYRYVSQ [UCN3_Y95] = 0.437
ILDEAYVMAIV [EGFR_Y764_S768I] = 1.39
KSSDVYVSFDF [SORL1_Y136_YF] = 0.983
YTGNTYRVGDT [FN1_Y106] = 0.563
FLLRVYSIFSK [SGCE_Y38_T36R] = 0.804

Query block: What does the record list as phosphorylation enrichment for ATATDYHTTSH [SLC4A1_Y46] ?
Result block: 0.387

Query block: Request the reported phosphorylation enrichment associated with FCVVRYCWLRR [MPZ_Y181_Y177C]
Result block: 0.586

Query block: Find the recorded phosphorylation enrichment belonging to DPFHVYIKNHV [KCNE3_Y95_R99H_YF] and report it.
Result block: 1.2

Query block: Suppose we examine the sequence TGQERYRAITS [RAB11B_Y73_A68T] ; what phosphorylation enrichment value has been reported?
Result block: 0.369

* * *

- TARGET_OR_TEST_SYSTEM: EPHB1 (UniProt P54762)
- Sequence (P54762 whole entry, looked up): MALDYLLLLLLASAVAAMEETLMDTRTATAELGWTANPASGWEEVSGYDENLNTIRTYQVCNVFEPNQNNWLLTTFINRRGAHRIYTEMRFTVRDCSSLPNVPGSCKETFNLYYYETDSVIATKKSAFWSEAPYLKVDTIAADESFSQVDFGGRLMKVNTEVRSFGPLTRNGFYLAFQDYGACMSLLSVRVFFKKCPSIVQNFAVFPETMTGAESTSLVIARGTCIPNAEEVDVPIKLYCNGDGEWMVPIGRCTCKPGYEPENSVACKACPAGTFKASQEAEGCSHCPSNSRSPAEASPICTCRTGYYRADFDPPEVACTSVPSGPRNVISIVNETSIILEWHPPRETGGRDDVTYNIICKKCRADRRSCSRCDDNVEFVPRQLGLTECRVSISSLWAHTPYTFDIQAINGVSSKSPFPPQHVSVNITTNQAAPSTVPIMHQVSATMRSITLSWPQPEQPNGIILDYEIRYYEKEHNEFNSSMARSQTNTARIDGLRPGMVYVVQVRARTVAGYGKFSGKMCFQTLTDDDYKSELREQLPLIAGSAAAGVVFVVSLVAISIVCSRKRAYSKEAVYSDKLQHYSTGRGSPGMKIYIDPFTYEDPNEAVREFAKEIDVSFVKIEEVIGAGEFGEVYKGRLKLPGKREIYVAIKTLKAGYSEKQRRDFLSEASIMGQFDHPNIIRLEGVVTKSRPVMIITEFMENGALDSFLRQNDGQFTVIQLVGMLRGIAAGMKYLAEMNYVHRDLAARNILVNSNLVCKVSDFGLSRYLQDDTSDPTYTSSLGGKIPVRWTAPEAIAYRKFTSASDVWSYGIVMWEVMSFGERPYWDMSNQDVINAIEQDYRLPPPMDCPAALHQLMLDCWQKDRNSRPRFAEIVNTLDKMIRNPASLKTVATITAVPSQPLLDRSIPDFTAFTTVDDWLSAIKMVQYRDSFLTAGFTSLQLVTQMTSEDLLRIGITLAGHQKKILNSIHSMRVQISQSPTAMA
- METHOD_NOTES: phosphorylation enrichment, bacterial display (enrichment ratio); higher = better substrate or ligand; peptides without Tyr show the background
Catalogue of sequences with associated phosphorylation enrichment
Hey, just send me the number, nothing else.

Answered cases to consult:
GRRNTYFASIA [ACADM_Y352_YF] = 0.346
CTTNHYNYMCN [TP53_Y234_I232N] = 0.682
KAIMTYVFSFY [ACTN4_Y260_S262F] = 0.63
AMCVRYDGVEV [ADAMTSL2_Y594] = 0.764
LPEENYQVLRF [ARHGAP1_Y365] = 4.13

Next item in the queue.
Query block: # query: phosphorylation enrichment | item GVPLGYPIKAP [ELN_Y206] | system: EPHB1 (UniProt P54762)
Result block: 0.323

* * *

- TARGET_OR_TEST_SYSTEM: MERTK (UniProt Q12866)
- METHOD_NOTES: phosphorylation enrichment, bacterial display (enrichment ratio); higher = better substrate or ligand; peptides without Tyr show the background
PROPERTY_NAME: phosphorylation enrichment
Number only, no unit.

Some solved cases for reference:
TTKGSYSLYVR [HCK_Y180_S183Y] = 0.43
KMKGDYYRYLA [YWHAG_Y130] = 2.1
MSRNLYSGDCF [DDR2_Y736_Y740C_YF] = 5.87
GVFSRHFTTFD [CLCA1_Y661_Y661H_YF] = 0.166

Query block: phosphorylation enrichment lookup needed for SSVAGYACLAY [MVD_Y131_A128V] , thanks.
Result block: 0.463

Query block: // query phosphorylation enrichment value for entry LKLKAYRFSIS [LCT_Y974_V971L]
Result block: 1.15

Query block: Entry GGYTCYSDGKK [PROS1_Y266_C267S] : reported phosphorylation enrichment = ?
Result block: 0.441

Query block: Recorded phosphorylation enrichment of HFVDEYDPTME [KRAS_Y32_I36M] , please.
Result block: 0.66

Query block: Requested read-out: phosphorylation enrichment. Entry: HTLMKYTDGDQ [PUS7L_Y94_I92M]
Result block: 0.463

Reference for the values: the supplement of paper PMC10065799
